# testedOn: 3',5'-cyclic-AMP phosphodiesterase 4B (Homo sapiens, UniProt Q07343)
# Sequence (Q07343 whole entry): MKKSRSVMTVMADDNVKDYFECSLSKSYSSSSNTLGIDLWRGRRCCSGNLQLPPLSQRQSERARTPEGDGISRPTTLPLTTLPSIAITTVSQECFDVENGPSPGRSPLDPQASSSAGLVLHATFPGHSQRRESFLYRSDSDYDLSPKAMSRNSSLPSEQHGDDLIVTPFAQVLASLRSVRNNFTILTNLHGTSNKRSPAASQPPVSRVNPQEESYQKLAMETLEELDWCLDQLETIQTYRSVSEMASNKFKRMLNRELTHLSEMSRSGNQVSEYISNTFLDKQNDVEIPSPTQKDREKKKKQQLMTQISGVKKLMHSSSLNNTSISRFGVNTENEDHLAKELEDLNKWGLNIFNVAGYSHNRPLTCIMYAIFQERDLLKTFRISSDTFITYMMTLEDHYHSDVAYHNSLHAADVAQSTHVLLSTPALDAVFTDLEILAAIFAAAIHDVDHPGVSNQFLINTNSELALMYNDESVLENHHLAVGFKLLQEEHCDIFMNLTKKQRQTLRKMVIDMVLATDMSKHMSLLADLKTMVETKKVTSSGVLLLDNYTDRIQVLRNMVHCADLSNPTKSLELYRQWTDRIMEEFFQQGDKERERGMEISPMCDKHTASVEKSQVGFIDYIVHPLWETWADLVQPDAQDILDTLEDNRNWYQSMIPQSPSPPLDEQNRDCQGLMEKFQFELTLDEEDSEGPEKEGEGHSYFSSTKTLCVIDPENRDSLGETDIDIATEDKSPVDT
# methodDescription: Inhibition of human recombinant PDE4B at high-affinity rolipram binding site
property: IC50

Which IC50 value is on record for Cc1csc(C(=O)N[C@H]2CC[C@@H](NC(=O)c3cc(F)cnc3Oc3cccc(-c4ccc(CN5C[C@@H](C)N[C@@H](C)C5)cc4CN4CCOCC4)c3)CC2)n1 ?
< 0.01 µM

* * *

# methodDescription: Fraction unbound in rat plasma
# Type: ADME, cell-free
property: fraction unbound
One number for each entry.

Param item = Cc1ccc(O)c(C(=O)N[C@H]2CC[C@@H](NC(=O)c3cc(F)cnc3Oc3cccc(-c4ccc(CN5C[C@@H](C)N[C@@H](C)C5)cc4CN4CCOCC4)c3)CC2)c1 ; retrieve measured fraction unbound.
0.083

One more molecule: Cc1csc(C(=O)N[C@H]2CC[C@@H](NC(=O)c3cc(F)cnc3Oc3cccc(-c4ccc(CN5C[C@@H](C)N[C@@H](C)C5)cc4CN4CCOCC4)c3)CC2)n1
0.23

And the next one, Cc1ccc(O)c(C(=O)N[C@H]2CC[C@@H](NC(=O)c3cc(F)cnc3Oc3ccc(F)c(F)c3)CC2)c1 ?
0.017

Others:
Any idea what its fraction unbound is? The molecule is Cc1cc(C(=O)N[C@H]2CC[C@@H](NC(=O)c3cc(F)cnc3Oc3cccc(-c4ccc(O)cc4CN4CCOCC4)c3)CC2)nn1C
0.1
